Taken from patent US12344623B2.

For each of the compounds below, state its IC50.
# test.system: human A2B receptor (Homo sapiens, UniProt P29275)
# Construct: expressed in transfected cells; host or cells: HEK293
# Sequence (P29275 1-332): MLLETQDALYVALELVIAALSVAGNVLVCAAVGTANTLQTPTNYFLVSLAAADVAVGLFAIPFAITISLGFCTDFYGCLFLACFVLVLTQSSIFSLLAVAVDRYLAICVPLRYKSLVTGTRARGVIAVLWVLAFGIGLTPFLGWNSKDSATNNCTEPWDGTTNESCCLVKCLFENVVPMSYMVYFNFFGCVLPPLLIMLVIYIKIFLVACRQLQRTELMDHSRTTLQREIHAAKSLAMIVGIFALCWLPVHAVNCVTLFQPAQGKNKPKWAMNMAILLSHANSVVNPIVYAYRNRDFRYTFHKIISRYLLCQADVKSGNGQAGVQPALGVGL
# protocol.notes: Functional A2B receptor activity, recombinant HEK293 cells, cAMP (HTRF), agonist NECA
# Assay type: cell-based
# measurement.conditions: read-out: Functional A2B receptor activity, HEK293, cAMP, IC50

Would you please look over these solved cases?
>  <compound>
COc1ncc(-c2cnn(C[C@H]3CCCOC3)c2)c2sc(NC(=O)N3CCC4(CCOCC4)C3)nc12 [Compound 104]

>  <test.system>
human A2B receptor (Homo sapiens, UniProt P29275)

>  <experimental.result>
< 100 nM

$$$$
>  <compound>
COc1nc(F)c(C2CCOCC2)c2sc(NC(=O)N3CCC4(CCCOC4)C3)nc12 (stereo not shown) [Compound 31]

>  <test.system>
human A2B receptor (Homo sapiens, UniProt P29275)

>  <experimental.result>
< 100 nM

$$$$
>  <compound>
COc1ncc(C2=CCOCC2)c2sc(NC(=O)c3cnc(C(=O)O)[nH]3)nc12 [Compound 168]

>  <test.system>
human A2B receptor (Homo sapiens, UniProt P29275)

>  <experimental.result>
< 100 nM

$$$$

In: Please look up its IC50: COc1ncc(-c2ccnc(N)c2)c2sc(NC(=O)N3CCC4(CCOCC4)C3)nc12 [Compound 124]
Out: < 10 nM
